The reported measurements were obtained from ChEMBL document CHEMBL4376815.

Assay Procedure: Half life in human at 10 to 1200 mg and measured up to 360 hrs by LC-MS/MS method
Format: ADME
Condition Description: in vivo
Observed Property: half-life

Ask: Look up half-life: CC1(C)c2nc(-c3ccc(F)cc3)c(Nc3ccc(F)cc3)n2CCN1C(=O)CN [GANAPLACIDE]
Reply: 47 to 70 h

----------
Assay Procedure: Cytotoxicity against human HepG2 cells assessed as reduction in cell viability after 4 days by XTT assay
Assay type: cell-based
Observed Property: CC50 at 96 h

Ask: Look up CC50 at 96 h: `C[C@H]1Cc2c([nH]c3cc(Cl)c(F)cc23)[C@@]2(N1)C(=O)Nc1ccc(Cl)cc12`
Reply: > 10 µM

----------
Assay Procedure: Volume of distribution in dog
Type: ADME, Canis lupus familiaris
Condition Description: in vivo
Observed Property: Vd

Ask: Look up Vd: `CS(=O)(=O)c1ccc(-c2cnc(N)c(-c3ccc(C(F)(F)F)nc3)c2)cc1`
Reply: 1.3 to 3 L/kg

----------
Assay Procedure: Oral bioavailability in dog
Format: ADME, organism-based, Canis lupus familiaris
Condition Description: in vivo
Observed Property: bioavailability (%)
Report the figure in % without appending any unit label.

Ask: Look up bioavailability: CS(=O)(=O)c1ccc(-c2cnc(N)c(-c3ccc(C(F)(F)F)nc3)c2)cc1 [MMV-048]
Reply: 45

----------
Assay Procedure: Half life in human at 300 mg/kg, po by LC-MS/MS analysis
Condition Description: in vivo
Observed Property: half-life (h)
Report the figure in h without appending any unit label.

Ask: Look up half-life: C[C@H]1Cc2c([nH]c3cc(Cl)c(F)cc23)[C@@]2(N1)C(=O)Nc1ccc(Cl)cc12 [CIPARGAMIN]
Reply: 24

----------
Assay Procedure: Plasma clearance in rat
Format: ADME
Observed Property: clearance (mL/min/kg)
Report the figure in mL/min/kg without appending any unit label.

Ask: Look up clearance: `CS(=O)(=O)c1ccc(-c2cnc(N)c(-c3ccc(C(F)(F)F)nc3)c2)cc1`
Reply: 6.5

----------
Assay Procedure: Volume of distribution in human at 80 to 100 mg
Assay type: ADME
Observed Property: Vd (L/kg)
Report the figure in L/kg without appending any unit label.

Ask: Look up Vd: `CS(=O)(=O)c1ccc(-c2cnc(N)c(-c3ccc(C(F)(F)F)nc3)c2)cc1`
Reply: 2.8

----------
Target: Voltage-gated inwardly rectifying potassium channel KCNH2 (Homo sapiens)
Sequence (Q12809 whole entry): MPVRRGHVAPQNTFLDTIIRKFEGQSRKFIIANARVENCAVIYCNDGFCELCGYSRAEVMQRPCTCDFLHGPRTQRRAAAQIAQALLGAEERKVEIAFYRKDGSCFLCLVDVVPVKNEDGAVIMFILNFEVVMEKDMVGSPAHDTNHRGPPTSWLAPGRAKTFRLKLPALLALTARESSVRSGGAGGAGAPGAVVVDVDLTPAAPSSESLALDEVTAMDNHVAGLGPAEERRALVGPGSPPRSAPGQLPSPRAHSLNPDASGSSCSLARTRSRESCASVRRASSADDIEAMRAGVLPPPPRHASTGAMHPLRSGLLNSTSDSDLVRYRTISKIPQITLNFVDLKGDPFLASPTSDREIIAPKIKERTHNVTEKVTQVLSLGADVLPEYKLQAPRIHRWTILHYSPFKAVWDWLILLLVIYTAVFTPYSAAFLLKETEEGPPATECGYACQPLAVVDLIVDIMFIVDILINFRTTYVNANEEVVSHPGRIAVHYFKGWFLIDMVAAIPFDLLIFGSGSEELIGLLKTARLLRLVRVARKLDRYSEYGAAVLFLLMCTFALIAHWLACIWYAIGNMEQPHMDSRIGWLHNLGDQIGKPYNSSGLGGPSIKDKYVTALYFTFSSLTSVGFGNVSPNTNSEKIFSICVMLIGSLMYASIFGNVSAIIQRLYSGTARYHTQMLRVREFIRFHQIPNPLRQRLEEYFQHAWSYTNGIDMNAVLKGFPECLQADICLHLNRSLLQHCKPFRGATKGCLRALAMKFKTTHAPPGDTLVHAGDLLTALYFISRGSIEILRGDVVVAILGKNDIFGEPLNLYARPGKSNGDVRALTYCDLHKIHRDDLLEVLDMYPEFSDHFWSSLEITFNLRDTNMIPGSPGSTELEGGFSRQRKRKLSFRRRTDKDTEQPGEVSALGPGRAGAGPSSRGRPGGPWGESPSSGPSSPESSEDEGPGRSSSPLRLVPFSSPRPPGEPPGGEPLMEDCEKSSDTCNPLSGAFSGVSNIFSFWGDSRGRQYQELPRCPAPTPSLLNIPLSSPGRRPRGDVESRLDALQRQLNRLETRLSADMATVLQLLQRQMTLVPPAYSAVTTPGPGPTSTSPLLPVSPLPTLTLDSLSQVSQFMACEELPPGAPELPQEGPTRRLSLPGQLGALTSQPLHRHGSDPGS
Assay Procedure: Inhibition of human ERG by patch clamp method
pIC50: −log10 of the molar value.
Observed Property: pIC50

* C[C@H]1Cc2c([nH]c3cc(Cl)c(F)cc23)[C@@]2(N1)C(=O)Nc1ccc(Cl)cc12 | ≤ 4.52

Ask: Look up pIC50: `Cc1cc(Nc2ccc(S(F)(F)(F)(F)F)cc2)n2nc(C(C)(F)F)nc2n1`
Reply: 5.16 to 5.80

----------
Assay Procedure: Plasma clearance in human at 80 to 100 mg
Format: ADME
Observed Property: clearance (mL/min)
Report the figure in mL/min without appending any unit label.

Ask: Look up clearance: CS(=O)(=O)c1ccc(-c2cnc(N)c(-c3ccc(C(F)(F)F)nc3)c2)cc1 [MMV-048]
Reply: 0.333

----------
Assay Procedure: Cytotoxicity against human THP1 cells assessed as reduction in cell viability after 4 days by XTT assay
Format: cell-based
Condition Description: THP-1 cells
Observed Property: CC50 at 96 h

Ask: Look up CC50 at 96 h: `C[C@H]1Cc2c([nH]c3cc(Cl)c(F)cc23)[C@@]2(N1)C(=O)Nc1ccc(Cl)cc12`
Reply: > 10 µM
